- Tested on: IL-1β production in PMA-differentiated THP-1 cells
- Test description: IL-1β production in PMA-differentiated THP-1 cells stimulated with gramicidin (hTHP-1 assay)
- Assay type: cell-based, human
- Condition set: Homo sapiens, THP-1, Average IC50, hTHP-1 assay containing 2% fetal bovine serum; Table 10, class symbols
Measurement name: IC50

Request: Which IC50 value is on record for CN(C)Cc1ccc(CS(N)(=O)=NC(=O)Nc2c3c(cc4c2CCC4)CCC3)cc1 (stereo not shown) [Compound 104] ?
Response: 1 to 5 µM

Request: Query CC(C)c1cccc(C(C)C)c1NC(=O)NS(=O)(=O)CC(O)c1ccsc1 (stereo not shown) [Compound 402] next
Response: 5 to 30 µM

Request: Query NS(=O)(=NC(=O)Nc1c2c(cc3c1CCC3)CCC2)C1CCCC1 (stereo not shown) [Compound 153] next
Response: 5 to 30 µM

Request: Query CC(C)(O)c1ccc(CS(N)(=O)=NC(=O)Nc2c3c(cc4c2CCC4)CCC3)cc1 (stereo not shown) [Compound 165] next
Response: 0.2 to 1 µM

---

- Tested on: IL-1β production in PMA-differentiated THP-1 cells
- Test description: IL-1β production in PMA-differentiated THP-1 cells stimulated with gramicidin (hTHP-1 assay)
- Type: cell-based, human
- Condition set: Homo sapiens, THP-1, Average IC50, hTHP-1 assay containing 2% fetal bovine serum; Table 10, class symbols
What IC50 was measured for each of the following?

Request: Which IC50 value is on record for CC1(S(N)(=O)=NC(=O)Nc2c3c(cc4c2CCC4)CCC3)CC1 (stereo not shown) ?
Response: 0.2 to 1 µM

Request: Query NS(=O)(=NC(=O)Nc1c2c(cc3c1CCC3)CCC2)C1Cc2ccccc2C1 (single isomer, unassigned) [Compound 129] next
Response: 5 to 30 µM

Request: Query `CC(C)c1cc(F)cc(C(C)C)c1CC(=O)NS(=O)(=O)Cc1ccc(C(C)(C)O)cc1` next
Response: 5 to 30 µM

Request: Query CN(C)CCCC(=O)NS(C)(=O)=NC(=O)Nc1c2c(cc3c1CCC3)CCC2 (single isomer, unassigned) next
Response: 5 to 30 µM

Request: Query CS(N)(=O)=NC(=O)Nc1c2c(cc3c1CCC3)CCC2 (single isomer, unassigned) [Compound 117] next
Response: 5 to 30 µM

Request: Query NS(=O)(=NC(=O)Nc1c2c(cc3c1CCC3)CCC2)C1Cc2ccccc2C1 (stereo not shown) [Compound 139] next
Response: 5 to 30 µM

Request: Query CN1CCC(CS(N)(=O)=NC(=O)Nc2c3c(cc4c2CCC4)CCC3)C1 (stereo not shown) [Compound 112] next
Response: 1 to 5 µM

Request: Query CC(=O)NS(C)(=O)=NC(=O)Nc1c2c(cc3c1CCC3)CCC2 (stereo not shown) next
Response: 5 to 30 µM

Request: Query CN1CCC(CS(N)(=O)=NC(=O)Nc2c3c(cc4c2CCC4)CCC3)C1 (single isomer, unassigned) [Compound 114] next
Response: 5 to 30 µM

Request: Query `CC(C)c1cc(Cl)cc(C(C)C)c1NC(=O)NS(=O)(=O)CC(=O)c1ccsc1` next
Response: 5 to 30 µM

Request: Query CN(C)Cc1cccc(CS(N)(=O)=NC(=O)Nc2c3c(cc4c2CCC4)CCC3)c1 (stereo not shown) next
Response: 5 to 30 µM

Request: Query `COC(=O)CCS(=O)(=O)NC(=O)Cc1c2c(cc3c1CCC3)CCC2` next
Response: 1 to 5 µM

Request: Query `COC(=O)CCS(=O)(=O)NC(=O)Cc1c(C(C)C)cc(F)cc1C(C)C` next
Response: 1 to 5 µM

Request: Query CC(C)c1cc(F)cc(C(C)C)c1CC(=O)N=S(N)(=O)C1CC1 (stereo not shown) next
Response: 0.008 to 0.04 µM

Request: Query CC(CCc1ccccc1)S(N)(=O)=NC(=O)Nc1c2c(cc3c1CCC3)CCC2 (stereo not shown) next
Response: 5 to 30 µM

Request: Query CN(C)Cc1ccc(CS(N)(=O)=NC(=O)Nc2c3c(cc4c2CCC4)CCC3)cc1 (single isomer, unassigned) [Compound 106] next
Response: 1 to 5 µM
